Record set: pKi | 5-hydroxytryptamine receptor 7 (Rattus norvegicus) | literature, multiple sources.
pKi: −log10 of the molar value.

{"columns": ["compound", "assay.system", "pKi"],
 "data": [
  ["COc1ccccc1N1CCN(Cc2ccccc2CN2C(=O)c3ccccc3C2=O)CC1", "5-hydroxytryptamine receptor 7 (Rattus norvegicus)", 6.44],
  ["CCCOc1nc2c(c(=O)n(C)c(=O)n2C)n1CCCCN1CCN(c2cccc(Cl)c2)CC1", "5-hydroxytryptamine receptor 7 (Rattus norvegicus)", 6.90],
  ["O=S(=O)(c1ccc2cc[nH]c2c1)N1CCC[C@@H]1CCN1CCC(Oc2ccc(Cl)cc2)CC1", "5-hydroxytryptamine receptor 7 (Rattus norvegicus)", 8.70],
  ["O=C1NC2(CCC(c3ccccc3)CC2)C(=O)N1CCCCN1CCN(c2cccc(Cl)c2)CC1 (stereo not given)", "5-hydroxytryptamine receptor 7 (Rattus norvegicus)", 6.11],
  ["COc1ccccc1N1CCN(CCCCN2C(=O)NC3(CCC(c4ccccc4)CC3)C2=O)CC1 (stereo not given)", "5-hydroxytryptamine receptor 7 (Rattus norvegicus)", 6.89]
]}

----------
pKi: −log10 of the molar value.
A compilation of pKi values for 5-hydroxytryptamine receptor 7 (Rattus norvegicus, UniProt P32305) from the published literature.
experimental.readout: pKi

{"columns": ["compound", "reported.relation", "measured.result"],
 "data": [
  ["CN(CC[C@@H](Oc1ccc(C(F)(F)F)cc1)c1ccccc1)CC(=O)[O-].[Li+]", "<", 5.00],
  ["CCCOc1nc2c(c(=O)n(C)c(=O)n2C)n1CCCN1CCc2ccccc2C1", "=", 5.36],
  ["CSc1ccccc1N1CCN(CCCCCC(=O)NCc2ccc(C#N)cc2)CC1", "=", 8.05],
  ["O=C1NC2(CCc3ccccc32)C(=O)N1CCCCN1CCN(c2cccc(C(F)(F)F)c2)CC1 (stereo not given)", "=", 7.17],
  ["O=C1NC2(CCCc3ccccc32)C(=O)N1CCCCN1CCN(c2ccccc2)CC1 (stereo not given)", "=", 6.94],
  ["COc1cc(F)ccc1OCCNCCCCN1C(=O)C2CCCN2C1=O (stereo not given)", "<", 6.00],
  ["CN1CCc2cccc3c2[C@H]1Cc1cccc(-c2ccccc2)c1-3", "=", 8.01],
  ["CC(C)c1ccccc1N1CCN(CCCCCC(=O)NCc2ccc(C#N)cc2)CC1", "=", 8.07],
  ["CC(C)n1nc2c(c1-c1ccc(Cl)cc1)CCNCC2", "=", 8.05],
  ["Cc1cccc(O)c1-c1cccc2c1-c1cccc3c1[C@@H](C2)N(C)CC3 (stereo in doubt; form 1)", "=", 7.64]
]}

----------
pKi: −log10 of the molar value.
Below are pKi values for UniProtKB P32305 collected from several publications.

{"columns": ["compound", "assay.system", "reported.relation", "pKi"],
 "data": [
  ["O=C(CCCCCN1CCN(c2noc3ccccc23)CC1)c1ccccc1O", "UniProtKB P32305", "=", 8.53],
  ["COc1ccccc1C(=O)CCCCCN1CCN(c2noc3ccccc23)CC1", "UniProtKB P32305", "=", 9.05],
  ["COc1ccccc1N1CCN(Cc2ccn(-c3ccccc3C#N)c2)CC1", "UniProtKB P32305", "=", 7.72],
  ["O=C1NC2(CCCCC2c2ccccc2)C(=O)N1CCCCN1CCN(c2ccccc2)CC1 (stereo not given)", "UniProtKB P32305", "=", 5.82],
  ["Cc1c(NC2=NCCN2)cccc1-c1cccc(C#N)c1.Cl", "UniProtKB P32305", "=", 6.77],
  ["CN1CCc2ccc3c4c2[C@H]1Cc1cccc(c1-4)[C@@H]3N", "UniProtKB P32305", "=", 7.74],
  ["CC(C)n1nc2c(c1-c1ccc(C#N)cc1)CCNCC2", "UniProtKB P32305", "=", 7.05],
  ["Cc1cccc(S(=O)(=O)N(C)[C@H](C)CCN2CCC(C)CC2)c1", "UniProtKB P32305", "=", 7.50],
  ["O=C1NC2(CCCCC2c2ccccc2)C(=O)N1CCCCN1CCN(c2cccc(Cl)c2)CC1 (stereo not given)", "UniProtKB P32305", "=", 7.37],
  ["COc1ccccc1OCCNCCCCN1C(=O)C2CCCN2C1=O.Cl (stereo not given)", "UniProtKB P32305", "<", 6.00]
]}

----------
Here's a roundup of Ki values tested on 5-hydroxytryptamine receptor 7 (Rattus norvegicus), taken from various published works.
Sequence (P32305 whole entry): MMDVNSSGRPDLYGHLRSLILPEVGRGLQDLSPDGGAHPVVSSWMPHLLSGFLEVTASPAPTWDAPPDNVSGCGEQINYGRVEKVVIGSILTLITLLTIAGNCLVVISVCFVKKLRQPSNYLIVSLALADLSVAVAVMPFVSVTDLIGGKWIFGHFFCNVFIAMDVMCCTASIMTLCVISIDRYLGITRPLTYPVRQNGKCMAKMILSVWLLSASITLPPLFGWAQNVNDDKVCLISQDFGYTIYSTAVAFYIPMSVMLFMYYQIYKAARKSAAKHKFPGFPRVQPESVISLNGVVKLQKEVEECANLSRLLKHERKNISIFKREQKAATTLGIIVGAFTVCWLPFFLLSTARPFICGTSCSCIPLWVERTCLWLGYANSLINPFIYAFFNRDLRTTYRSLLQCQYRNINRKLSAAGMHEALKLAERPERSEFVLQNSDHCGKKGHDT
experimental.readout: Ki (nM)

{"columns": ["compound", "assay.system", "result.units", "reported.relation", "measured.result"],
 "data": [
  ["O=C(CCCCCN1CCN(c2cccc(C(F)(F)F)c2)CC1)c1ccccc1O", "5-hydroxytryptamine receptor 7 (Rattus norvegicus)", "nM", "=", 384],
  ["CC1CCN(CC[C@H]2CCCN2S(=O)(=O)c2cccc(O)c2)CC1", "5-hydroxytryptamine receptor 7 (Rattus norvegicus)", "nM", "=", 1],
  ["Cn1c(=O)c2c([nH]c(=O)n2CCCN2CCc3ccccc3C2)n(C)c1=O", "5-hydroxytryptamine receptor 7 (Rattus norvegicus)", "nM", "=", 16500],
  ["C[C@@H]1c2cccc3c2-c2c1ccc1c2[C@@H](C3)N(C)CC1", "5-hydroxytryptamine receptor 7 (Rattus norvegicus)", "nM", "=", 3.3],
  ["C1=C(CN2CCOCC2)COc2c1cccc2OC[C@H]1CNCCO1.CS(=O)(=O)O", "5-hydroxytryptamine receptor 7 (Rattus norvegicus)", "nM", ">", 3000],
  ["Cc1cc(C#N)c(OC2CNC2)cc1-c1ccccc1", "5-hydroxytryptamine receptor 7 (Rattus norvegicus)", "nM", "≥", 10000],
  ["Cn1c(=O)c2c([nH]c(=O)n2CCCN2CCN(c3cccc(Cl)c3)CC2)n(C)c1=O", "5-hydroxytryptamine receptor 7 (Rattus norvegicus)", "nM", "=", 1880],
  ["COc1ccccc1N1CCN(CCCCCC(=O)NCc2ccc(OS(C)(=O)=O)cc2)CC1", "5-hydroxytryptamine receptor 7 (Rattus norvegicus)", "nM", "=", 71],
  ["COc1ccccc1N1CCN(Cc2ccn(-c3ccccc3C(F)(F)F)c2)CC1", "5-hydroxytryptamine receptor 7 (Rattus norvegicus)", "nM", "=", 105],
  ["CC(C)n1nc2c(c1-c1ccc(F)cc1)CCNCC2", "5-hydroxytryptamine receptor 7 (Rattus norvegicus)", "nM", "=", 8],
  ["CCOc1nc2c(c(=O)n(C)c(=O)n2C)n1CCCCN1CCN(c2ccccc2OC)CC1.Cl", "5-hydroxytryptamine receptor 7 (Rattus norvegicus)", "nM", "=", 54],
  ["Cn1ccc2ccc(OCCCN3CCC(c4noc5cc(F)ccc45)CC3)cc2c1=O", "5-hydroxytryptamine receptor 7 (Rattus norvegicus)", "nM", "=", 109],
  ["COc1ccc(S(=O)(=O)NCCCN2CCc3cc(OC)ccc3C2)cc1", "5-hydroxytryptamine receptor 7 (Rattus norvegicus)", "nM", "=", 1200],
  ["COc1ccccc1N1CCN(CCCCC(=O)c2ccccc2O)CC1", "5-hydroxytryptamine receptor 7 (Rattus norvegicus)", "nM", "=", 16.4],
  ["Cc1c(NC2=NCCN2)cccc1-c1cccs1", "5-hydroxytryptamine receptor 7 (Rattus norvegicus)", "nM", "=", 16.6],
  ["CN1CCc2ccc3oc(=O)c4cccc5c4c3c2[C@H]1C5", "5-hydroxytryptamine receptor 7 (Rattus norvegicus)", "nM", "=", 280],
  ["Cc1c(NC2=NCCN2)cccc1-c1ccccc1", "5-hydroxytryptamine receptor 7 (Rattus norvegicus)", "nM", "=", 16.2],
  ["CCCOc1nc2c(c(=O)n(C)c(=O)n2C)n1CCCN1CCN(c2ccccc2)CC1", "5-hydroxytryptamine receptor 7 (Rattus norvegicus)", "nM", "=", 980],
  ["O=C1NC2(CCCc3ccccc32)C(=O)N1CCCCN1CCN(c2cccc(C(F)(F)F)c2)CC1 (centres undefined)", "5-hydroxytryptamine receptor 7 (Rattus norvegicus)", "nM", "=", 117]
]}

----------
Below, Ki values reported for UniProtKB P32305 across several publications.
experimental.readout: Ki (nM)

{"columns": ["compound", "reported.relation", "measured.result"],
 "data": [
  ["CCn1nc2c(c1-c1ccccc1)CCNCC2", "=", 140],
  ["Cc1cccc(OCCNCCCCN2C(=O)C3CCCN3C2=O)c1C (configuration not stated)", ">", 1000],
  ["CN(C)[C@@H]1COc2ccc(-c3ccccc3)cc2C1", ">", 1000],
  ["Cc1c(NC2=NCCN2)cccc1-c1ccsc1", "=", 31.6],
  ["Cn1c(=O)c2c([nH]c(=O)n2CCCCN2CCN(c3cccc(Cl)c3)CC2)n(C)c1=O", "=", 3670],
  ["Cc1c(NC2=NCCN2)cccc1-c1cccc(C(C)C)c1", "=", 182],
  ["COc1ccccc1N1CCN(CCCCN2C(=O)NC3(CCCc4ccccc43)C2=O)CC1 (configuration not stated)", "=", 47],
  ["COc1ccccc1N1CCN(CCCCC(=O)c2cccc(O)c2)CC1", "=", 15],
  ["CN1CCc2ccc3c4c2[C@H]1Cc1cccc(c1-4)[C@H]3N", "=", 13],
  ["COc1ccccc1N1CCN(CCCCCC(=O)NCc2ccncc2)CC1", "=", 389],
  ["O=C(CCCCCN1CCN(c2ccccc2-c2ccccc2)CC1)NCc1ccncc1", "=", 0.98],
  ["CSc1ccccc1N1CCN(CCCCCC(=O)N2CCc3ccccc3C2)CC1", "=", 32.9],
  ["O=C1C2CCCN2C(=O)N1CCCCNCCOc1ccccc1-c1ccccc1 (configuration not stated)", "=", 101],
  ["O=C1C2CCCN2C(=O)N1CCCCNCCOc1ccc2ccccc2c1 (configuration not stated)", ">", 1000],
  ["CN(C)[C@@H]1COc2ccc(-c3c(O)cccc3O)cc2C1", ">", 1000],
  ["CC(C)c1ccccc1N1CCN(CCCCCC(=O)NCc2ccncc2)CC1", "=", 5.1],
  ["CCN(CCCN1CCN(c2ccccc2OC)CC1)S(=O)(=O)c1ccc(C)cc1", "=", 19],
  ["Cc1cccc(S(=O)(=O)N2CCC[C@@H]2CCN2CCC(C)CC2)c1", "=", 3],
  ["COc1cccc(OC)c1-c1cccc2c1OC[C@@H](N(C)C)C2", "=", 5.29],
  ["Cc1cccc(C#N)c1-c1cccc2c1-c1cccc3c1[C@@H](C2)N(C)CC3 (stereo in doubt; 57)", "=", 21],
  ["CSc1ccccc1N1CCN(CCCCCC(=O)NCc2ccncc2)CC1", "=", 34.8],
  ["CC(C)n1nc2c(c1-c1ccc(C(F)(F)F)cc1)CCNCC2", "=", 15]
]}
